Assay: DUSP6 inhibitors restoring Erk phosphorylation by chemical complementation, primary imaging in DUSP6-transfected HeLa (AID 609)
Details: HeLa MKP-3 transfected, phospho-Erk imaging KS statistic; measured here: cell density z-score; at 10 µM; cells stimulated with TPA for 15 min
Binning of z-score into classes: lower band: < -0.8; central band: ≥ -0.8 and < 0.2; upper band: ≥ 0.2

Quick check: band for `CCCc1cc(NCCCCO)n2c(nc3ccccc32)c1C#N`
central band

For this compound, which bin applies? COc1cccc(C2=CC(c3ccc(N(C)C)cc3)n3nnnc3N2)c1 (stereo unspecified)
central band

Field: class (z-score) — entry: CCN(CC)CCCN1C(=O)C(=O)/C(=C(/O)c2ccc(OC)cc2)C1c1ccco1 (stereo unspecified)
upper band

Exam item: assign `Cc1ccc(N2C(=O)c3sc4nnc(C)c(=O)n4c3C2=O)cc1` to the correct category.
upper band

Please classify: `CCCc1nc2n[nH]c(N)c2c2c1CCCC2`
central band

Returns: class label. Input: `Cc1cc(OCC(=O)Nn2cnnc2)ccc1Br`
upper band

Band assignment needed for COc1ccc(OC)c(C2/C(=C(/O)c3ccccc3)C(=O)C(=O)N2Cc2ccco2)c1 (stereo unspecified) please.
upper band

Could you place `COC(=O)c1cc(Br)c(=O)n(-c2cc(C)on2)c1` in its proper category? Many thanks.
central band

Class for Cc1ccc2[nH]c3c(c2c1)CN(C(=O)CN1CC(C)OC(C)C1)CC3 (stereo unspecified) ?
upper band

Input `Cc1nnc(N2CCCCC2)c2ccccc12` ; output its category
lower band

Could you tell me which band COc1ccc(C2C(C#N)=C(N)Oc3cc(C)n(CCN4CCOCC4)c(=O)c32)cc1OC (stereo unspecified) belongs to?
lower band

Tag the class for COc1ccccc1C1CC(c2ccc(Cl)cc2)Nc2nc(N)nn21 (stereo unspecified)
central band

Hey, which category is O=C1C(=O)N(CCCn2ccnc2)C(c2ccccn2)/C1=C(/O)c1ccccc1 (stereo unspecified) in, do you know?
central band

Assign a category based on measured z-score for COc1ccc(/C(O)=C2/C(=O)C(=O)N(CCCN(C)C)C2c2ccccc2)cc1Cl (stereo unspecified) and give only the class name.
upper band

Band for the recorded z-score of COc1ccc(-c2nc3n(n2)C(=O)CC(c2ccco2)S3)cc1 (stereo unspecified) ?
lower band

Determine which band this compound sits in: `Cc1cc(=O)oc2ccc(OCC(=O)N3CCc4ccccc43)cc12`
lower band

Assign a category based on measured z-score for CCOC(=O)C(C)Sc1nc(-c2cccs2)ccc1C#N (stereo unspecified) and give only the class name.
lower band

Pick a category. Item: Cc1ccc(OCC(O)CNS(=O)(=O)c2ccccc2C(=O)O)cc1 (stereo unspecified)
upper band

Category of `CCOC(=O)CC(=O)CSc1nnc2sc3ccccc3n12` , please.
upper band

Input `CCOC(=O)Cn1nc(C)c2ccccc2c1=O` ; output its category
upper band

# classify by z-score band: `O=C(COc1ccc(F)cc1)OCCN1CCOCC1`
lower band

Which class is correct for the following compound? `O=C(CN1C2=NCCN2c2ccccc21)N1CCOCC1`
central band

Entry Cn1c(NCC(O)c2ccccc2)nc2c1c(=O)n(Cc1ccc(Cl)cc1)c(=O)n2C (stereo unspecified) belongs to which category?
central band

Assign a bin to CCC1(C)Cc2c(sc(NC(=O)CCC(=O)O)c2C#N)CO1 (stereo unspecified)
upper band

Bin this entry: `COC(=O)c1c(-n2cnnn2)sc(C)c1C`
central band

Please classify: `COc1cccc(NC(=O)c2cc(C(=O)Nc3cccc(OC)c3)n(C)n2)c1`
lower band

Hello team, could you let me know which band the following compound falls into: `C=CCc1cccc(CNc2nc3ccccc3n2C(C)C)c1O`
lower band

Sort into band: `CN(C)c1ccc(C=Nc2cnn(C)c2C(N)=O)cc1`
central band

Entry O=C1CC(NCc2ccncc2)C(=O)N1c1ccc(Cl)cc1 (stereo unspecified) belongs to which category?
upper band

Hello team, could you let me know which band the following compound falls into: `COC(=O)CSc1nc(C)c(Oc2ccccc2)c(=O)[nH]1`
lower band

Returns: class label. Input: `Cc1ccc(-c2nnc(-c3ccccc3)o2)cc1Br`
central band

Dear colleague, I would appreciate it if you could identify the bin for `CCOC(=O)C1CCN(c2ncnc3c2cnn3-c2ccc(Cl)cc2)CC1` and reply at your convenience.
upper band

# bin label for CCn1c(SCC(=O)NC2CCCCC2C)nnc1-c1ccc(OC)cc1 (stereo unspecified)
central band

Each compound maps to one class by z-score. Which class for `CCCSc1nnc2n(Cc3ccccc3)c(=O)c3c4c(sc3n12)CCC4` ?
upper band

# bin label for `CCCc1nc(N2CCCC2)c(C#N)c2c1CCCC2`
lower band

State the class of the compound shown: `CCOC(=O)CSc1nc(N2CCOCC2)c2c(c1C#N)CC(C)(C)N(C)C2`
central band

Bin this entry: CCCC1CC(=O)OC1(C)C(=O)CSc1n[nH]c(-c2ccccc2)n1 (stereo unspecified)
upper band

Lab log: `CCN(CC)Cc1c(O)ccc2c(C)c(CC(=O)OC)c(=O)oc12` — assign z-score category
upper band

Textbook exercise: identify the category of the compound given here, `Cc1cccc(OCCN2CSC(=S)N(C)C2)c1` , according to its measured value.
central band

Which bin, given its z-score, does `CC1(C)Cc2c(C#N)c(N3CCN(C(=O)c4ccccc4)CC3)nc(-c3ccco3)c2CS1` occupy?
upper band

Sort `CC(=O)CCn1c(=O)n(CCC(C)=O)c(=O)n(CCC(C)=O)c1=O` into one of the categories.
lower band

Could you place COC(=O)C(NC(=O)c1ccco1)(Nc1nc(C)cs1)C(F)(F)F (stereo unspecified) in its proper category? Many thanks.
central band

Form: Item = `CN1Cc2c(N3CCOCC3)nc(SCc3ccccc3)c(C#N)c2CC1(C)C` ; Class = ?
lower band

Hi there! Could you help me figure out the category for COc1ccc(C2NC(=O)NC(O)(C(F)(F)F)C2C(=O)c2ccc(F)cc2)cc1 (stereo unspecified) please?
lower band

Band for COc1cccc(C2/C(=C(\O)c3ccc4c(c3)OCCO4)C(=O)C(=O)N2CCCN(C)C)c1OC (stereo unspecified) ?
upper band
